- Test system: BGC-823
- PROTOCOL: Cytotoxicity against human BGC823 cells by MTT assay
- Format: functional, cell-based
OUTCOME MEASURE: IC50
State the value with its unit after it.

Please review the entries below; each comes with its answer.
C[C@H]1[C@H](C)CC[C@]2(C(=O)O)CC[C@]3(C)C(=CC[C@@H]4[C@@]5(C)CC[C@H](O)C(C)(C)[C@@H]5CC[C@]43C)[C@H]12 :: 23 µM
CC(=O)O[C@H]1CC[C@]2(C)[C@H]3CC=C4[C@@H]5[C@@H](C)[C@H](C)CC[C@]5(C(=O)O)CC[C@@]4(C)[C@]3(C)CC[C@H]2C1(C)C :: 19.4 µM

Next item in the queue.
Query block: Which IC50 value is on record for CC(=O)O[C@H]1C(=O)[C@@]2(C)[C@H]([C@H](OC(=O)c3ccccc3)[C@]3(O)C[C@H](OC(=O)[C@H](O)[C@@H](NC(=O)c4ccccc4)c4ccccc4)C(C)=C1C3(C)C)[C@]1(OC(C)=O)CO[C@@H]1C[C@@H]2O ?
Result block: 33.1 µM
